Molecular target: T1, S15-extra cellular domain (ECD) monomer (human, UniProt Q6ZMC9 20-263)
T1 construct: also called S15 monomer protein
T1 sequence: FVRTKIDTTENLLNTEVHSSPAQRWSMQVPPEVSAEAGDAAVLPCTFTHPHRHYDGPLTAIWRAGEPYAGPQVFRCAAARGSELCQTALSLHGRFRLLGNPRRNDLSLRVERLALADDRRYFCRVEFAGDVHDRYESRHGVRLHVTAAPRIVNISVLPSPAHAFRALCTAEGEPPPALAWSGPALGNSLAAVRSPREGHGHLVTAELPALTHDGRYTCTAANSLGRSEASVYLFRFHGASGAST
Test: BLI (Octet RED96), mAb on anti-human Fc sensors, S15-ECD monomer in solution, global fit
outcome-measure: Kd (pM)
One number for each entry, in pM.

Example entries begin here.
| binder | Kd (pM) |
| --- | --- |
| 1H3 (antibody, V domains shown, Mouse anti-human Siglec-15 mAb) VH: QVQLKESGPGLVAPSQSLSITCTVSGFSLSNYGVHWVRQPPGKGLEWLVLIWSDGSTTYNSALKSRLSISKDNSKSQVFLKMNSLQTGDTAMYYCARHPYDDYSGYYYTMDYWGQGTSVTVSS VL: DIQMTQASSSLSVSLGGRVTITCKASDHINNWLAWYQQKPGNAPRLLISGATSLETGVPSRFSGSGSGKDYTLSITSLQTEDVATYYCQQYWSSPLTFGAGTKLELK | 110 |
| 6A (antibody, V domains shown, Mouse anti-human Siglec-15 mAb; also called NC6) VH: EVQLQQSGAELVRPGASVKLSCTASGFNIKDDYMHWVKQRPEQGLEWIGCIDPENGDTEYASKFQDKATITTDTSSNTAYLQLSSLTSEDTAVYYCTTYVGFAYWGQGTLVTVST VL: DVLMTQTPLSLPVSLGDQASISCRSSQSIVHSNGNTYLEWYLQKPGQSPKLLIYKVSNRFSGVPDRFSGSGSGTDFTLRISRVEAEDLGVYYCFQGSHVPLTFGAGTKLELK | 2940 |

Then there is this binder:
Data request: Which value of Kd has been reported for 6F8 (antibody, V domains shown, Mouse anti-human Siglec-15 mAb) VH: QVQLKQSGPELVRPGASVKISCEASGYTFTDYYVNWVKQRPGRGLEWIGKIGPGSVSIYYNEKFKDKATLTADKSSSTAYMQLSGLTSEDSAVYFCASYYYGFAYWGQGTLVTVSA VL: DIVMTQAAPSVPVTPGESVSISCRSSKSLLHSNGNTYLYWFLQRPGQSPQLLIYRMSNLASGVPDRFGGSGSGTAFTLRISRVEAEDVGVYYCMQHLEYPYTFGGGTKLEIKR in the records?
Data returned: 440
